- target_or_test_system: Galectin-1 (Mus musculus)
- assay_remarks: Binding affinity to mouse galectin-1 assessed as dissociation constant by fluorescein probe based fluorescence polarization assay
measured_metric: Kd (nM)

1. CO[C@@H]1[C@@H](n2cc(-c3csc(N)n3)nn2)[C@@H](O)[C@@H](CO)O[C@@H]1Sc1cc(Cl)c(F)c(Cl)c1; 91
2. CO[C@@H]1[C@@H](n2cc(-c3nccs3)nn2)[C@@H](O)[C@@H](CO)O[C@@H]1Sc1cc(Cl)c(F)c(Cl)c1; 160
3. CO[C@@H]1[C@@H](n2cc(-c3csc(O)n3)nn2)[C@@H](O)[C@@H](CO)O[C@@H]1Sc1cc(Cl)c(F)c(Cl)c1; 43
4. CO[C@@H]1[C@@H](n2cc(-c3csc(N)n3)nn2)[C@@H](O)[C@@H](CO)O[C@@H]1Sc1ccc(Cl)c(Cl)c1; 99
5. CO[C@@H]1[C@@H](n2cc(-c3csc(O)n3)nn2)[C@@H](O)[C@@H](CO)O[C@@H]1Sc1ccc(Cl)c(Cl)c1; 72

* * *

- target_or_test_system: Galectin-1 (Homo sapiens, UniProt P09382)
- Sequence (P09382 whole entry): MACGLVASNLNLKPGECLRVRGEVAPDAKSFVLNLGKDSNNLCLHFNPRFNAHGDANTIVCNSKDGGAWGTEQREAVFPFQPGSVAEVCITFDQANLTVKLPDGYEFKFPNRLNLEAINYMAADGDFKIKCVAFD
- assay_remarks: Binding affinity to human galectin-1 assessed as dissociation constant by fluorescein probe based fluorescence polarization assay
Binary call on Kd with cut-off 100 nM: strictly below means MET, and equality or higher means NOT MET.

1. CO[C@@H]1[C@@H](n2cc(-c3csc(O)n3)nn2)[C@@H](O)[C@@H](CO)O[C@@H]1Sc1cc(Cl)c(F)c(Cl)c1; MET
2. CO[C@@H]1[C@@H](n2cc(-c3nccs3)nn2)[C@@H](O)[C@@H](CO)O[C@@H]1Sc1cc(Cl)c(F)c(Cl)c1; NOT MET
3. OC[C@H]1O[C@H](Sc2ccc(Cl)c(Cl)c2)[C@H](O)[C@@H](n2cc(-c3csc(O)n3)nn2)[C@H]1O; NOT MET
4. CO[C@@H]1[C@@H](n2cc(-c3csc(N)n3)nn2)[C@@H](O)[C@@H](CO)O[C@@H]1Sc1ccc(Cl)c(Cl)c1; NOT MET
5. OC[C@H]1O[C@H](Sc2cc(Cl)c(F)c(Cl)c2)[C@H](O)[C@@H](n2cc(-c3csc(O)n3)nn2)[C@H]1O; MET

* * *

- target_or_test_system: Galectin-8 (Homo sapiens, UniProt O00214)
- Sequence (O00214 whole entry): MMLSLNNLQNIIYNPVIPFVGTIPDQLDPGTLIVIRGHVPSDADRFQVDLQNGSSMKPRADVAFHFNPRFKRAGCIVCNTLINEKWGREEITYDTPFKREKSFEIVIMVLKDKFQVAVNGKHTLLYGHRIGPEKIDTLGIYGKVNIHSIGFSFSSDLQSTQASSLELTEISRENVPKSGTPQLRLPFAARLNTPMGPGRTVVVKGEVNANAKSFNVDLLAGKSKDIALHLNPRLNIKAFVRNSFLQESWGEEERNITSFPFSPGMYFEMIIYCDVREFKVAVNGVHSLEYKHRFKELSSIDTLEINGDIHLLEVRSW
- assay_remarks: Inhibition of N-terminal human galectin-8 by competitive fluorescence polarization assay
measured_metric: Kd (µM)

1) CO[C@@H]1[C@@H](n2cc(-c3csc(O)n3)nn2)[C@@H](O)[C@@H](CO)O[C@@H]1Sc1ccc(Cl)c(Cl)c1; 80.6

* * *

- assay_remarks: Stability in human hepatocytes assessed as hepatic intrinsic clearance at 2 uM measured per million cells for 15 to 120 mins by LC-MS/MS analysis
- Format: ADME, cell-based, Hepatocyte
- conditions_used: time 15-120 min, read-out: CLH
measured_metric: hepatocyte CLint at 2 µM (µL/min/1e6 cells)

1. CO[C@@H]1[C@@H](n2cc(-c3csc(O)n3)nn2)[C@@H](O)[C@@H](CO)O[C@@H]1Sc1cc(Cl)c(F)c(Cl)c1; 2.5
2. CO[C@@H]1[C@@H](n2cc(-c3nccs3)nn2)[C@@H](O)[C@@H](CO)O[C@@H]1Sc1cc(Cl)c(F)c(Cl)c1; 4.4
3. CO[C@@H]1[C@@H](n2cc(-c3csc(N)n3)nn2)[C@@H](O)[C@@H](CO)O[C@@H]1Sc1cc(Cl)c(F)c(Cl)c1; 4.6

* * *

- target_or_test_system: Galectin-1 (Mus musculus, UniProt P16045)
- Sequence (P16045 whole entry): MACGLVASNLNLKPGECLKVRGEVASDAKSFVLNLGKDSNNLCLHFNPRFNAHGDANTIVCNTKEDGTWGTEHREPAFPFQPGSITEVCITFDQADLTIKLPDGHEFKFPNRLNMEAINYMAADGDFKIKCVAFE
- assay_remarks: Binding affinity to CM3 chip-immobilized full-length mouse galectin-1 assessed as dissociation constant by SPR analysis
pKd: −log10 of the molar value.
measured_metric: pKd

1) CO[C@@H]1[C@@H](n2cc(-c3csc(O)n3)nn2)[C@@H](O)[C@@H](CO)O[C@@H]1Sc1ccc(Cl)c(Cl)c1; 7.05

* * *

- assay_remarks: Apparent permeability across basal to apical side in human Caco-2 cells at 10 uM incubated for 90 mins by LC-MS/MS analysis
compounds and their reported Papp B→A at 1.5 h, 10 µM
measured_metric: Papp B→A at 1.5 h, 10 µM (×10⁻⁶ cm/s)

1. CO[C@@H]1[C@@H](n2cc(-c3csc(O)n3)nn2)[C@@H](O)[C@@H](CO)O[C@@H]1Sc1ccc(Cl)c(Cl)c1; 48
2. CO[C@@H]1[C@@H](n2cc(-c3csc(N)n3)nn2)[C@@H](O)[C@@H](CO)O[C@@H]1Sc1ccc(Cl)c(Cl)c1; 38
3. CNc1nc(-c2cn([C@@H]3[C@@H](O)[C@@H](Sc4cc(Cl)c(F)c(Cl)c4)O[C@H](CO)[C@@H]3O)nn2)cs1; 46
4. CO[C@@H]1[C@@H](n2cc(-c3nccs3)nn2)[C@@H](O)[C@@H](CO)O[C@@H]1Sc1cc(Cl)c(F)c(Cl)c1; 28

* * *

- assay_remarks: physchem
- conditions_used: octanol/potassium phosphate buffer, pH 7.4
measured_metric: logD at 1 h

1) CO[C@@H]1[C@@H](n2cc(-c3csc(O)n3)nn2)[C@@H](O)[C@@H](CO)O[C@@H]1Sc1cc(Cl)c(F)c(Cl)c1; 3.3
2) CN(C)c1nc(-c2cn([C@@H]3[C@@H](O)[C@@H](Sc4cc(Cl)c(F)c(Cl)c4)O[C@H](CO)[C@@H]3O)nn2)cs1; 3.8
3) CO[C@@H]1[C@@H](n2cc(-c3nccs3)nn2)[C@@H](O)[C@@H](CO)O[C@@H]1Sc1cc(Cl)c(F)c(Cl)c1; 3.7
4) CNc1nc(-c2cn([C@@H]3[C@@H](O)[C@@H](Sc4cc(Cl)c(F)c(Cl)c4)O[C@H](CO)[C@@H]3O)nn2)cs1; 2.9
5) Nc1csc(-c2cn([C@@H]3[C@@H](O)[C@@H](Sc4cc(Cl)c(F)c(Cl)c4)O[C@H](CO)[C@@H]3O)nn2)n1; 2.5
6) CO[C@@H]1[C@@H](n2cc(-c3csc(O)n3)nn2)[C@@H](O)[C@@H](CO)O[C@@H]1Sc1ccc(Cl)c(Cl)c1; 3.2
7) CO[C@@H]1[C@@H](n2cc(-c3csc(N)n3)nn2)[C@@H](O)[C@@H](CO)O[C@@H]1Sc1ccc(Cl)c(Cl)c1; 2.9
8) OC[C@H]1O[C@H](Sc2cc(Cl)c(F)c(Cl)c2)[C@H](O)[C@@H](n2cc(-c3csc(O)n3)nn2)[C@H]1O; 2.8
9) CO[C@@H]1[C@@H](n2cc(-c3csc(N)n3)nn2)[C@@H](O)[C@@H](CO)O[C@@H]1Sc1cc(Cl)c(F)c(Cl)c1; 3

* * *

- assay_remarks: Volume of distribution at steady state in C57BL/6 mouse at 1 mg/kg, iv measured for 24 hrs by HPLC analysis
- Assay type: ADME, organism-based
- conditions_used: in vivo, read-out: Vdss
measured_metric: Vd (L/kg)

1) CO[C@@H]1[C@@H](n2cc(-c3csc(O)n3)nn2)[C@@H](O)[C@@H](CO)O[C@@H]1Sc1ccc(Cl)c(Cl)c1; 0.4

* * *

- target_or_test_system: Galectin-3 (Homo sapiens, UniProt P17931)
- Sequence (P17931 whole entry): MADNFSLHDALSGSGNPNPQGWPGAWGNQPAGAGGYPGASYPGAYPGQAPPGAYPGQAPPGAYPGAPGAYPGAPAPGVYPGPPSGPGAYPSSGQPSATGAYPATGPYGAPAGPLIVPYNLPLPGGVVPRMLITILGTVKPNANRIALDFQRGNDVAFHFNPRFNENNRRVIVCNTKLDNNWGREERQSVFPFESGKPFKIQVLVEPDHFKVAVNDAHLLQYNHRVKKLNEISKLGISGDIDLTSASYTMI
- assay_remarks: Inhibition of human galectin-3 by competitive fluorescence polarization assay
pKd: −log10 of the molar value.
measured_metric: pKd

1) CO[C@@H]1[C@@H](n2cc(-c3csc(O)n3)nn2)[C@@H](O)[C@@H](CO)O[C@@H]1Sc1ccc(Cl)c(Cl)c1; 5.22

* * *

- target_or_test_system: UniProtKB P17931
- assay_remarks: Binding affinity to human galectin-3 assessed as dissociation constant by competitive fluorescence polarization assay
pKd: −log10 of the molar value.
measured_metric: pKd

1. OC[C@H]1O[C@@H](S[C@@H]2O[C@H](CO)[C@H](O)[C@H](n3cc(-c4csc(O)n4)nn3)[C@H]2O)[C@H](O)[C@@H](n2cc(-c3cc(F)c(F)c(F)c3)nn2)[C@H]1O; 9.00

* * *

- assay_remarks: Clearance in C57BL/6 mouse at 1 mg/kg, iv measured for 24 hrs by HPLC analysis
- Format: ADME, organism-based
- conditions_used: in vivo
measured_metric: clearance

1) CO[C@@H]1[C@@H](n2cc(-c3csc(O)n3)nn2)[C@@H](O)[C@@H](CO)O[C@@H]1Sc1ccc(Cl)c(Cl)c1; 3.7 mL/min/kg

* * *

compounds and their reported hepatocyte CLint at 2 µM
- assay_remarks: Stability in mouse hepatocytes assessed as hepatic intrinsic clearance at 2 uM measured per million cells for 15 to 120 mins by LC-MS/MS analysis
- Format: ADME, cell-based, Hepatocyte
- conditions_used: time 15-120 min, read-out: CLH
measured_metric: hepatocyte CLint at 2 µM

1) CO[C@@H]1[C@@H](n2cc(-c3csc(O)n3)nn2)[C@@H](O)[C@@H](CO)O[C@@H]1Sc1ccc(Cl)c(Cl)c1; < 1.5 µL/min/1e6 cells
2) CO[C@@H]1[C@@H](n2cc(-c3csc(O)n3)nn2)[C@@H](O)[C@@H](CO)O[C@@H]1Sc1cc(Cl)c(F)c(Cl)c1; < 1.5 µL/min/1e6 cells
3) CO[C@@H]1[C@@H](n2cc(-c3csc(N)n3)nn2)[C@@H](O)[C@@H](CO)O[C@@H]1Sc1ccc(Cl)c(Cl)c1; < 1.5 µL/min/1e6 cells
4) CO[C@@H]1[C@@H](n2cc(-c3nccs3)nn2)[C@@H](O)[C@@H](CO)O[C@@H]1Sc1cc(Cl)c(F)c(Cl)c1; < 1.5 µL/min/1e6 cells
5) CO[C@@H]1[C@@H](n2cc(-c3csc(N)n3)nn2)[C@@H](O)[C@@H](CO)O[C@@H]1Sc1cc(Cl)c(F)c(Cl)c1; 1.6 µL/min/1e6 cells
